System: Bacillus subtilis
Assay: Antibacterial activity against Bacillus subtilis MTCC 441 after 24 hrs
Assay type: functional
readout-kind: MIC

Use these answered entries as a reference point.
[[record]]
compound = "O=C(CNC(=O)c1ccccc1)NN1C(=O)CSC1c1cccc([N+](=O)[O-])c1 (stereo not given)"
result = "12.4 µg/mL"

[[record]]
compound = "Cc1ccc(C2SCC(=O)N2NC(=O)CNC(=O)c2ccccc2)cc1 (stereo not given)"
result = "12.6 µg/mL"

[[record]]
compound = "O=C(CNC(=O)c1ccccc1)NN1C(=O)CSC1c1ccccc1Cl (stereo not given)"
result = "6.24 µg/mL"

[[record]]
compound = "CCN(CC)c1ccc(C2SCC(=O)N2NC(=O)CNC(=O)c2ccccc2)cc1 (stereo not given)"
result = "12.4 µg/mL"


# query: MIC of entry O=C(CNC(=O)c1ccccc1)NN1C(=O)CSC1c1ccc(Br)cc1 (stereo not given)
47.8 µg/mL

----------
Test system: Micrococcus luteus
Assay: Antibacterial activity against Micrococcus luteus
Type: functional
Readings of MIC for the listed molecules
The reply should contain only the number, in µg/mL.

Use these answered entries as a reference point.
[[record]]
structure_smiles_string = "O=c1oc2ccccc2cc1-c1nn(-c2nc3ccccc3s2)cc1/C=N/Nc1nc(-c2ccc(Br)cc2)cs1"
numeric_value = 7.8

[[record]]
structure_smiles_string = "COc1ccc(-c2csc(N/N=C/c3cn(-c4nc5ccccc5s4)nc3-c3cc4ccccc4oc3=O)n2)cc1"
numeric_value = 7.8

[[record]]
structure_smiles_string = "Cc1ccc(-c2csc(N/N=C/c3cn(-c4nc5ccccc5s4)nc3-c3cc4ccccc4oc3=O)n2)cc1"
numeric_value = 3.9

[[record]]
structure_smiles_string = "O=c1oc2ccccc2cc1-c1nn(-c2nc3ccccc3s2)cc1/C=N/Nc1nc(-c2ccc(-c3ccccc3)cc2)cs1"
numeric_value = 7.8


# query: MIC of entry "O=c1oc2c(Br)cccc2cc1-c1csc(N/N=C/c2cn(-c3nc4ccccc4s3)nc2-c2cc3ccccc3oc2=O)n1"
7.8

----------
Readings of MIC for the listed compounds
Test system: Escherichia coli
Experiment: Antibacterial activity against Escherichia coli AG102
Format: functional
The reply should contain only the number, in µg/mL.

[[record]]
structure_smiles_string = "O=C(Nc1ccc(Cc2nc3ccccc3s2)cc1)c1ccc(F)cc1"
numeric_value = 128

[[record]]
structure_smiles_string = "CCc1ccc(C(=O)Nc2ccc(-c3nc4ccccc4s3)cc2)cc1"
numeric_value = 128


Consider the additional compound presented here.
# query: MIC of entry "Cc1ccc(CC(=O)Nc2ccc(-c3nc4ccccc4s3)cc2)cc1"
512

----------
Readings of MIC for the listed compounds
Tested on: Enterococcus faecalis
Assay: Antibacterial activity against Enterococcus faecalis
Type: functional
The reply should contain only the number, in µg/mL.

[[record]]
structure_smiles_string = "NC(=O)c1cc(-c2csc(-c3cccc(-c4csc(-c5ccccc5)n4)c3)n2)ccc1O"
target_entity = "Enterococcus faecalis"
readout_kind = "MIC"
measurement_units = "µg/mL"
numeric_value = 250

[[record]]
structure_smiles_string = "Clc1ccc(-c2csc(-c3cccc(-c4csc(-c5ccccc5)n4)c3)n2)cc1"
target_entity = "Enterococcus faecalis"
readout_kind = "MIC"
measurement_units = "µg/mL"
numeric_value = 32


# query: MIC of entry "N#Cc1ccc(-c2csc(-c3cccc(-c4csc(-c5ccccc5)n4)c3)n2)cc1"
62
